- Tested Target: A*6801 (Homo sapiens, UniProt P04439, A269V/D185E/E176V/E277Q/E87N/F33Y/G231S/I121M/I166T/I218V/L180W/L300P/L318F/N151K/P208A/P217A/Q86R/R169H/T345S)
- Protocol Notes: biochemical
- Assay type: binding
pIC50: −log10 of the molar value. No end group written: not given here.
Quantity: pIC50

{"columns": ["Chain Sequence", "pIC50"],
 "data": [
  ["KVCLRLLSK [Peptide 78.0302]", "< 4.70"],
  ["RQRKIDWLIK [Peptide 9017.0247]", "< 4.70"]
]}

Please examine the following record next.
Lab note: AQVLHLLKRK [Peptide 1587.52] gave pIC50 of < 4.70

====

- Tested Target: DRB1*0405 (Homo sapiens, UniProt P01903+P01911, A100R/A169T/D86S/F76Y/I96L/K127E/L162R/M171V/N62H/P40V/Q125Y/R42H/S133A/S149N/S66Y/V115G/V209L/W38E)
- Protocol Notes: biochemical
- Format: binding
No end group written: not given here.
Quantity: IC50

Worked cases, IC50 given:
{"columns": ["Chain Sequence", "Quantity", "Result"],
 "data": [
  ["RKTIAKALSSILNVP [Peptide 89.0123]", "IC50", "> 20 µM"],
  ["EVHMENESIYCPDSV [Peptide 90.0238]", "IC50", "> 20 µM"]
]}

// IC50 value for IKFFQGSVISFVNSQ [Peptide 89.0136] : > 20 µM

====

- Tested Target: DRB1*1501 (Homo sapiens, UniProt P01903+P01911)
- Protocol Notes: biochemical
- Assay type: binding
pIC50: −log10 of the molar value. No end group written: not given here.
For each of the sequences below, state its pIC50.

// worked examples, pIC50 included
{"columns": ["Chain Sequence", "Tested Target", "Result"],
 "data": [
  ["TLAVSKNKALQAIEL [Peptide 89.0150]", "DRB1*1501 (Homo sapiens, UniProt P01903+P01911)", "< 4.70"],
  ["ELQMALKGLAQSKYN [Peptide 90.0005]", "DRB1*1501 (Homo sapiens, UniProt P01903+P01911)", "< 4.70"]
]}

Let us examine a further case.
Looking up CTLVAGEVDYVGLYY [Peptide 90.0252] , I see its pIC50 listed as < 4.70

====

- Tested Target: DR4w4 (DRB1*0401) (Homo sapiens, UniProt P01903+P01911, A100K/A169T/F76Y/I96L/K127E/L162R/M171V/N62H/P40V/Q125Y/R42H/S133A/S149N/S66Y/V115G/V209L/W38E)
- Protocol Notes: biochemical
- Assay type: binding
pIC50: −log10 of the molar value. No end group written: not given here.
Could you please report measured pIC50 for the items listed next?

// solved cases for pIC50 follow
{"columns": ["Chain Sequence", "pIC50"],
 "data": [
  ["YLVCGERGFFYTKPT [Peptide 9000.0079]", "< 4.69"],
  ["RETIEKLLSKLLCVS [Peptide 89.0006]", "< 4.70"],
  ["LVQIKCPPLLITTNI [Peptide 89.0138]", "< 4.70"],
  ["TELNTSLQDIEITCV [Peptide 1543.34]", "< 4.70"]
]}

For the next question, use this sequence.
Record summary for PEEFLRPRSLQCVSL [Peptide 68.0015] : reported pIC50 = < 4.70

====

Give measured IC50 for each item. Keep answers brief.
- Tested Target: A*2601 (Homo sapiens, UniProt P04439, A114D/A173T/A270S/D101N/D185E/E277Q/E87N/F33Y/G231S/I121R/I218V/K168Q/L180W/L300P/L318F/P208A/P217A/Q86R/Q94H/R138Q/S129P/T187R/T323A/T345S/V100A/V358M)
- Protocol Notes: biochemical
- Assay type: binding
No end group written: not given here.

Example results:
{"columns": ["Chain Sequence", "IC50"],
 "data": [
  ["CQDKILEHY [Peptide 1580.23]", "> 20 µM"],
  ["VWTIVYIEY [Peptide 9015.0089]", "> 20 µM"],
  ["VMDDSEIAY [Peptide 1580.07]", "> 20 µM"],
  ["VTDDSEIAY [Peptide 1593.13]", "> 20 µM"],
  ["HYARELHPEY [Peptide 9018.0035]", "> 20 µM"],
  ["NSLVKHHMY [Peptide 9015.0033]", "> 20 µM"]
]}

Return reported IC50 values for all items listed beneath this line.
1. RTKNPEIVIY [Peptide 9015.0164]
2. LMWKFDSSL [Peptide 1605.16]

OUT:
1. > 20 µM
2. > 20 µM

====

- Tested Target: A*6802 (Homo sapiens, UniProt P04439, A269V/D140Y/D185E/E176V/E277Q/E87N/F33Y/G231S/I121R/I166T/I218V/L180W/L300P/L318F/N151K/P208A/P217A/Q86R/R138H/R169H/S129P/T345S/V36M)
- Protocol Notes: biochemical
- Assay type: binding
No end group written: not given here.
Would you kindly list IC50 for each of these sequences?

Below: 3 sequences and their reported IC50.
{"columns": ["Chain Sequence", "IC50"],
 "data": [
  ["GLNLSLSCHAA [Peptide 9013.0312]", "> 20 µM"],
  ["QLHTQVLFIA [Peptide 9013.0242]", "> 20 µM"],
  ["LQLSNDNRTLV [Peptide 9013.0307]", "> 20 µM"]
]}

Give me IC50 for each of these sequences, listed below.
1. IQNDTGFYT [Peptide 9013.0034]
2. SLNRSDPVT [Peptide 9013.0099]

OUT:
["> 20 µM", "> 20 µM"]

====

So I've got a bunch of compounds here, and I need their IC50 values.
- Tested Target: DRB1*0802 (Homo sapiens, UniProt P01903+P01911, A100R/A103L/A169T/F76Y/H45Y/I96F/K41T/L162R/M171V/P40S/Q125H/Q178H/Q39Y/Q99D/R218S/R42G/S66Y/V115G/W38E)
- Protocol Notes: biochemical
- Assay type: binding

Example entries begin here.
{"columns": ["Compound", "IC50"],
 "data": [
  ["CSCC[C@H](NC(=O)[C@H](CCC(N)=O)NC(=O)[C@H](CC(C)C)NC(=O)CNC(=O)[C@H](CO)NC(=O)[C@@H](NC(=O)[C@@H](NC(=O)[C@@H](NC(=O)[C@@H](N)CC(=O)O)[C@@H](C)O)[C@@H](C)O)C(C)C)C(=O)N[C@@H](C)C(=O)N[C@@H](CC(C)C)C(=O)N[C@@H](CC(=O)O)C(=O)N[C@H](C(=O)N[C@@H](Cc1ccc(O)cc1)C(=O)N[C@@H](CC(N)=O)C(=O)O)C(C)C [Peptide 68.0051]", "> 20 µM"],
  ["CSCC[C@H](NC(=O)[C@H](CC(=O)O)NC(=O)[C@H](Cc1ccc(O)cc1)NC(=O)[C@H](CC(C)C)NC(=O)[C@@H]1CCCN1C(=O)[C@H](Cc1c[nH]cn1)NC(=O)[C@@H]1CCCN1)C(=O)N[C@@H](CO)C(=O)N[C@@H](CC(C)C)C(=O)N[C@@H](CC(C)C)C(=O)N[C@@H](CCCCN)C(=O)N[C@@H](CC(N)=O)C(=O)N[C@@H](CCCNC(=N)N)C(=O)N[C@@H](Cc1ccccc1)C(=O)N[C@@H](CC(C)C)C(=O)O [Peptide 68.0071]", "> 20 µM"],
  ["CC[C@H](C)[C@H](NC(=O)[C@H](C)NC(=O)[C@H](CCCCN)NC(=O)[C@H](Cc1c[nH]cn1)NC(=O)[C@H](C)NC(=O)[C@H](CCCCN)NC(=O)[C@H](CO)NC(=O)[C@H](CCCCN)NC(=O)[C@H](CO)NC(=O)[C@@H](NC(=O)[C@H](CC(N)=O)NC(=O)[C@H](Cc1ccc(O)cc1)NC(=O)[C@H](C)N)[C@@H](C)CC)C(=O)N[C@@H](CCC(=O)O)C(=O)N[C@@H](CC(C)C)C(=O)O [Peptide 89.0159]", "> 20 µM"],
  ["CC[C@H](C)[C@H](NC(=O)[C@H](Cc1c[nH]c2ccccc12)NC(=O)[C@H](CCC(=O)O)NC(=O)[C@@H]1CCCN1)C(=O)N[C@@H](CCC(=O)O)C(=O)N[C@@H](CCCNC(=N)N)C(=O)N[C@@H](CCC(N)=O)C(=O)N[C@H](C(=O)N[C@H](C(=O)N[C@@H](CC(C)C)C(=O)N[C@@H](CCC(N)=O)C(=O)N[C@@H](Cc1c[nH]cn1)C(=O)N[C@@H](CO)C(=O)N[C@@H](Cc1ccccc1)C(=O)N[C@@H](CC(N)=O)C(=O)O)C(C)C)[C@@H](C)O [Peptide 89.0049]", "0.707 µM"],
  ["CC(C)C[C@H](NC(=O)[C@H](CCC(N)=O)NC(=O)[C@H](C)NC(=O)[C@H](CC(N)=O)NC(=O)[C@H](CCCCN)NC(=O)[C@@H](NC(=O)[C@H](CCCCN)NC(=O)[C@H](CC(N)=O)NC(=O)CN)C(C)C)C(=O)N[C@@H](C)C(=O)NCC(=O)N[C@@H](C)C(=O)N[C@@H](CCCCN)C(=O)NCC(=O)N[C@H](C(=O)O)C(C)C [Peptide 68.0097]", "> 20 µM"],
  ["CC[C@H](C)[C@H](NC(=O)[C@@H]1CCCN1C(=O)[C@H](CC(=O)O)NC(=O)[C@@H](NC(=O)[C@@H]1CCCN1C(=O)[C@H](Cc1ccccc1)NC(=O)[C@@H](NC(=O)[C@H](CC(=O)O)NC(=O)[C@@H](NC(=O)[C@@H]1CCCN1C(=O)[C@H](CO)NC(=O)[C@@H](N)CCCNC(=N)N)[C@@H](C)CC)[C@@H](C)O)[C@@H](C)O)C(=O)N[C@@H](CCCCN)C(=O)N[C@@H](CCC(=O)O)C(=O)N[C@@H](CO)C(=O)O [Peptide 68.0026]", "> 20 µM"]
]}

The measured IC50 associated with CC(C)C[C@H](NC(=O)[C@@H](NC(=O)[C@H](Cc1c[nH]c2ccccc12)NC(=O)[C@H](CC(=O)O)NC(=O)[C@H](CCC(=O)O)NC(=O)[C@@H](NC(=O)[C@H](CCCCN)NC(=O)[C@H](Cc1ccc(O)cc1)NC(=O)[C@H](CCCNC(=N)N)NC(=O)[C@H](CO)NC(=O)[C@@H](N)CCC(N)=O)[C@@H](C)O)[C@@H](C)O)C(=O)N[C@@H](CCC(N)=O)C(=O)N[C@@H](CC(=O)O)C(=O)N[C@H](C(=O)N[C@@H](CS)C(=O)O)[C@@H](C)O [Peptide 90.0179] reads 0.585 µM
